- Experimental System: HEK293 cells expressing NR1/NR2B (Homo sapiens (Human), UniProt Q05586+Q13224)
- Sequence (Q13224 27-1484, other chains not shown): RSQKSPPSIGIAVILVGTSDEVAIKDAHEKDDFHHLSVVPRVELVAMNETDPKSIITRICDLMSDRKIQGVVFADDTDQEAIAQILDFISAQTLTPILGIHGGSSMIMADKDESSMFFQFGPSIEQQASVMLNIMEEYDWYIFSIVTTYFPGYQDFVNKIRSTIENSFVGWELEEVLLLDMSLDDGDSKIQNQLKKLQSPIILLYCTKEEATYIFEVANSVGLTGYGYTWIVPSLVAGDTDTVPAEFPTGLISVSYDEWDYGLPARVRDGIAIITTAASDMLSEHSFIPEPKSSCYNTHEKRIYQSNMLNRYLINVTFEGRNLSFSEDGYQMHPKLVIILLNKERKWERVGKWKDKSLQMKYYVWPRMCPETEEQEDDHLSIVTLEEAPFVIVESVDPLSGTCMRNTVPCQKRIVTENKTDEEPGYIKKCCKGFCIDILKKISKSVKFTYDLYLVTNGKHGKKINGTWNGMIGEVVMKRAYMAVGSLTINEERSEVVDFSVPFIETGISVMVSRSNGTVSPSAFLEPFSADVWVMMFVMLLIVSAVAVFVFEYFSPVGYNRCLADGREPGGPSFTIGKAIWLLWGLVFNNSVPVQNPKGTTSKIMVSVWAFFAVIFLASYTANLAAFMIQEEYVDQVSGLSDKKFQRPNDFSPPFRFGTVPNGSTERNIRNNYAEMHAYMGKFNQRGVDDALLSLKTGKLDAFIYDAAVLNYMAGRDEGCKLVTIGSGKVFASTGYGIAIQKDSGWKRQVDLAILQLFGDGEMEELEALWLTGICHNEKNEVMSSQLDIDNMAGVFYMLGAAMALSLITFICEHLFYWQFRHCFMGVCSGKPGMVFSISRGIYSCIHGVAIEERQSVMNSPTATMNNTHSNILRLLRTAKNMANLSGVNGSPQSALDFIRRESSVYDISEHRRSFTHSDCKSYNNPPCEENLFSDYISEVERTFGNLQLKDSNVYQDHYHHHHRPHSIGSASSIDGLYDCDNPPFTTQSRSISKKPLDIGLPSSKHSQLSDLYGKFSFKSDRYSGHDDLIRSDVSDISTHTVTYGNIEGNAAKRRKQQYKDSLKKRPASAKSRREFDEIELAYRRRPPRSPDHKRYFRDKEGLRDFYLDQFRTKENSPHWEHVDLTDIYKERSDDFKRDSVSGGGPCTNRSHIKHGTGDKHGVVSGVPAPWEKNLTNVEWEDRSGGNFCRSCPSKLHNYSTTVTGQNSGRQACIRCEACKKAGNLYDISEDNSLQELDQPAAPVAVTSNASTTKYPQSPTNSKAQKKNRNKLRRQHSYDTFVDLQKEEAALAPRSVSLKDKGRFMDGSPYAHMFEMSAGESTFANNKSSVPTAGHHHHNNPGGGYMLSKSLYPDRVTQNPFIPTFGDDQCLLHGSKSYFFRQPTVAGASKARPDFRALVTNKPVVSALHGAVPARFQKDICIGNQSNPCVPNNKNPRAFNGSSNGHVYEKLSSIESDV
- Assay Text: NR2B NAM Assay (FDSS Ca2+ influx cell assay)
- Details: NR2B NAM assay, class of inhibitory concentration; read-out: Activity Category
pIC50: −log10 of the molar value.
Measured pIC50, listed per entry.

{"Molecule": "Oc1ccc(C(O)CN2C[C@H]3C[C@H](Sc4ccccc4)C[C@H]3C2)cc1 (stereo partly drawn)", "Experimental System": "HEK293 cells expressing NR1/NR2B (Homo sapiens (Human), UniProt Q05586+Q13224)", "pIC50": "> 7.00"}
{"Molecule": "O=S(=O)(c1ccccc1)[C@H]1C[C@@H]2CN(CC(O)c3ccc(O)c(F)c3)C[C@@H]2C1 (stereo partly drawn)", "Experimental System": "HEK293 cells expressing NR1/NR2B (Homo sapiens (Human), UniProt Q05586+Q13224)", "pIC50": "< 5.00"}
{"Molecule": "Cc1ccc(O[C@H]2C[C@@H]3CN(CC(O)c4ccc(O)cn4)C[C@@H]3C2)c(F)n1 (stereo partly drawn)", "Experimental System": "HEK293 cells expressing NR1/NR2B (Homo sapiens (Human), UniProt Q05586+Q13224)", "pIC50": "> 7.00"}
{"Molecule": "Oc1ccc(C(O)CN2C[C@H]3C[C@H](Oc4cccnc4F)C[C@H]3C2)nc1 (stereo partly drawn)", "Experimental System": "HEK293 cells expressing NR1/NR2B (Homo sapiens (Human), UniProt Q05586+Q13224)", "pIC50": "> 7.00"}
{"Molecule": "O=C(CN1C[C@H]2C[C@H](Oc3c(F)cccc3F)C[C@H]2C1)c1ccc(O)cc1", "Experimental System": "HEK293 cells expressing NR1/NR2B (Homo sapiens (Human), UniProt Q05586+Q13224)", "pIC50": "> 7.00"}
{"Molecule": "Oc1ccc(C(O)CN2C[C@H]3C[C@H](Sc4ccccc4F)C[C@H]3C2)nc1 (stereo partly drawn)", "Experimental System": "HEK293 cells expressing NR1/NR2B (Homo sapiens (Human), UniProt Q05586+Q13224)", "pIC50": "> 7.00"}
